# Assayed system: Rat brain protein farnesyltransferase (Rattus norvegicus, UniProt Q02293+Q04631)
# Construct: The enzyme is purified according to Reiss, Y., et al., Cell, 62: 81-88 (1990), utilizing steps one through three; from tissue; host or cells: rat brain
# Protocol text: In vitro inhibition of protein farnesyltransferase, Amersham scintillation proximity assay with biotin-K Ras B fragment
# Assay type: biochemical
# Conditions: Inhibition of farnesyltransferase; compound at 1 × 10^−6 M (Table 2); read-out: % inhibition at 1 × 10^−6 M
Readout type: inhibition at 1 µM
Answer format: number, then unit.

[ask] Would you mind telling me what inhibition at 1 µM value was observed for CSCC[C@H](NC(=O)c1ccc(CN(Cc2ccccc2)c2cccnc2)cc1-c1ccccc1C)C(=O)OCOC(=O)C(C)(C)C ?
[reply] 98%

[ask] # repeat for CCCC(=O)OC(c1cccnc1)C(OC(=O)CCC)c1ccc(C(=O)N[C@@H](CCS(C)(=O)=O)C(=O)O)c(-c2ccccc2)c1 (stereo partly shown)
[reply] 63%

[ask] Also COC(=O)[C@H](CCSC)NC(=O)c1ccc(/C=C/c2cccnc2)cc1-c1ccccc1 , if possible.
[reply] 5%

[ask] Entry to check: CSCC[C@H](NC(=O)c1ccc(CSCc2c[nH]cn2)cc1-c1ccccc1C)C(=O)O
[reply] 98%

[ask] Check CSCC[C@H](NC(=O)c1ccc(COc2cccnc2)cc1Oc1ccccc1)C(=O)O too.
[reply] 92%

[ask] Similarly, COC(=O)[C@H](CCSC)NC(=O)c1ccc(NCc2cccnc2)cc1-c1ccccc1 ?
[reply] 63%

[ask] For C[C@H](NC(=O)c1ccc(COc2cccnc2)cc1-c1ccccc1)C(=O)O then?
[reply] 68%

----------
# Assayed system: Rat brain protein farnesyltransferase (Rattus norvegicus, UniProt Q02293+Q04631)
# Construct: The enzyme is purified according to Reiss, Y., et al., Cell, 62: 81-88 (1990), utilizing steps one through three; from tissue; host or cells: rat brain
# Protocol text: In vitro inhibition of protein farnesyltransferase, Amersham scintillation proximity assay with biotin-K Ras B fragment
# Type: biochemical
# Conditions: Inhibition of farnesyltransferase; compound at 1 × 10^−6 M (Table 2); read-out: % inhibition at 1 × 10^−6 M
Readout type: inhibition at 1 µM (%)
The response must be a number in % with no trailing unit.

[ask] What inhibition at 1 µM value was documented for this compound, COc1ccccc1-c1cc(COc2cccnc2)ccc1C(=O)N[C@@H](CCSC)C(=O)O [Example 207] ?
[reply] 98

[ask] Here is the next compound: CS(=O)(=O)CC[C@H](NC(=O)c1ccc(NC(=O)c2cccnc2)cc1-c1ccccc1)C(=O)O [Example 203]
[reply] 76

[ask] How about this compound: CSCC[C@H](NC(=O)c1ccc(OCc2cccnc2)cc1-c1ccccc1)C(=O)O [Example 240]
[reply] 98

[ask] Moving on to CSCC[C@H](NC(=O)c1cc(-c2cccs2)c(COc2cccnc2)cc1-c1ccccc1C)C(=O)O [Example 346]
[reply] 98

----------
For each record, write down the corresponding inhibition at 1 µM.
# Assayed system: Rat brain protein farnesyltransferase (Rattus norvegicus, UniProt Q02293+Q04631)
# Construct: The enzyme is purified according to Reiss, Y., et al., Cell, 62: 81-88 (1990), utilizing steps one through three; from tissue; host or cells: rat brain
# Protocol text: In vitro inhibition of protein farnesyltransferase, Amersham scintillation proximity assay with biotin-K Ras B fragment
# Type: biochemical
# Conditions: read-out: % inhibition at 1 × 10^−6 M
# Description: The ability of the compounds of the invention to inhibit protein farnesyltransferase or protein geranylgeranyltransferase can be measured according to the method of Moores, et al., J. Biol. Chem. 266: 14603 (1991) or the method of Vogt, et al., J. Biol. Chem. 270:660-664 (1995). […] In addition, in vitro inhibition of protein farnesyltransferase may be measured by the following procedure. […] The % inhibition of protein farnesyltransferase was determined for representative compounds of the invention.
Structures can show the parent of a compound that is named as a salt.
Return type: number; implicit unit %.

[ask] Look at this compound and give its reported inhibition at 1 µM. CSCC[C@H](NC(=O)c1ccc(/C=C/c2cncc(Br)c2)cc1-c1ccccc1)C(=O)O [Example 215, Sodium Salt]
[reply] 82

[ask] Next: CSCC[C@H](NC(=O)c1cc(I)c(COc2cccnc2)cc1-c1ccccc1C)C(=O)O [Example 347]
[reply] 95

[ask] Try this compound next: CSCC[C@H](NC(=O)c1ccc(COc2cccnc2)cc1-c1ccccc1C(F)(F)F)C(=O)O [Example 304]
[reply] 99

[ask] Same question for CSCC[C@H](NC(=O)c1ccc(CNc2cnccc2C)cc1-c1ccccc1)C(=O)O [Example 280, Sodium Salt] please.
[reply] 98

[ask] // repeat for CSCC[C@H](NC(=O)Nc1ccc(COc2cccnc2)cc1-c1ccccc1)C(=O)O [Example 348] and report
[reply] 66

[ask] Also check CSCC[C@H](NC(=O)c1ccc(/C=C/n2ccnc2)cc1-c1ccccc1)C(=O)O [Example 217, Sodium Salt]
[reply] 99

[ask] Item: CSCC[C@H](NC(=O)c1ccc(C(=O)N(Cc2ccccc2)c2cccnc2)cc1-c1ccccc1C)C(=O)O [Example 451]
[reply] 85
